- test_target: AlbAS (Klebsiella oxytoca, UniProt Q8KRS7)
- Sequence (Q8KRS7 1-221): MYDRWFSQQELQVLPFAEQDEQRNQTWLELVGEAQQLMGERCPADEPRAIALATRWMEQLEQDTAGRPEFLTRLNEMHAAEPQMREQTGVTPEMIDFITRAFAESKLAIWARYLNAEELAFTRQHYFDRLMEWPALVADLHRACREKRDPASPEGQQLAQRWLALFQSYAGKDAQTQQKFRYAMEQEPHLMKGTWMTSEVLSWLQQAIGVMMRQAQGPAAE
reported_endpoint: pKd
The quantity pKd is defined as the negative base-10 logarithm of the molar concentration.

Note to self: pKd of COC(C(N)=O)C(NC(=O)c1ccc(NC(=O)c2ccc([N+](=O)[O-])cc2)cc1)C(=O)Nc1ccc(C(=O)Nc2ccc(C(=O)Nc3ccc(C(=O)O)cc3OC(C)C)cc2OC(C)C)cc1 (stereo not shown) with AlbAS (Klebsiella oxytoca, UniProt Q8KRS7) was 7.85

###

- test_target: AlbASNTD (Klebsiella oxytoca, UniProt Q8KRS7)
- measurement_notes: Fluorescence quenching binding assay with AlbASNTD
- experimental_parameters: AlbASNTD 100 nM, n constrained to 1
reported_endpoint: pKd
The quantity pKd is defined as the negative base-10 logarithm of the molar concentration.

Item: `COc1c(NC(=O)c2ccc(NC(=O)c3ccc(NC(=O)[C@H](CC#N)NC(=O)c4ccc(NC(=O)/C(C)=C/c5ccc(O)cc5)cc4)cc3)c(OC)c2O)ccc(C(=O)O)c1O` | pKd: 5.47

These measurements were taken from paper PMC6078987.
